- ASSAYED TARGET: Kappa-type opioid receptor (Cavia porcellus, UniProt P41144)
- Sequence (P41144 whole entry): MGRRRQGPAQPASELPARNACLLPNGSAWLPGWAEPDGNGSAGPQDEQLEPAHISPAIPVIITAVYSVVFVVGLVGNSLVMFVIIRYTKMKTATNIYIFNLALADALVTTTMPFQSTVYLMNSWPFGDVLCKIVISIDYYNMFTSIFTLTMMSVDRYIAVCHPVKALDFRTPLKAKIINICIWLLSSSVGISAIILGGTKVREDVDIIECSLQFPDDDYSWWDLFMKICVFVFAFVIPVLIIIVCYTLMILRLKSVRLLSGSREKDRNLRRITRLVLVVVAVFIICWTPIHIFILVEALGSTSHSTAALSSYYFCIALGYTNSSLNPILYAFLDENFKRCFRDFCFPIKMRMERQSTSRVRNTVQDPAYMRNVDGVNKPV
- PROTOCOL TEXT: Displacement of [3H]U-69,593 from kappa opioid receptor in guinea pig brain membranes by scintillation counting analysis
- Assay type: cell membranes, Membrane
QUANTITY: Ki

molecule="COC(=O)N1CCC(NC(=O)Cc2ccc(Cl)c(Cl)c2)C([C@@H](C)N2CCCC2)C1 (stereo partly specified)" assayed_target="Kappa-type opioid receptor (Cavia porcellus, UniProt P41144)" quantity=Ki result="0.31 nM"

----------
- ASSAYED TARGET: Kappa-type opioid receptor (Cavia porcellus, UniProt P41144)
- PROTOCOL TEXT: Displacement of [3H]U-69,593 from kappa opioid receptor in guinea pig brain membranes after 120 mins by scintillation counting analysis
- Assay type: cell membranes, Membrane
QUANTITY: Ki (nM)

molecule="CN1CC2OCCN(C(=O)Cc3ccc(Cl)c(Cl)c3)C2C(N2CCCC2)C1 (racemic)" quantity=Ki unit_string=nM censoring_sign== numeric_value=286
molecule="O=C(Cc1ccc(Cl)c(Cl)c1)N1CCOC2CN(Cc3ccccc3)CC(N3CCCC3)C21 (racemic)" quantity=Ki unit_string=nM censoring_sign== numeric_value=912
molecule="O=C1COC2CN(C(=O)Cc3ccc(Cl)c(Cl)c3)CC(N3CCCC3)C2N1 (racemic)" quantity=Ki unit_string=nM censoring_sign=> numeric_value=1000
molecule="CCCCN1CC2OCCN(C(=O)Cc3ccc(Cl)c(Cl)c3)C2C(N2CCCC2)C1 (racemic)" quantity=Ki unit_string=nM censoring_sign=> numeric_value=1000
molecule="O=C(Cc1ccc(Cl)c(Cl)c1)N1CCOC2CN(Cc3cccnc3)CC(N3CCCC3)C21 (racemic)" quantity=Ki unit_string=nM censoring_sign=> numeric_value=1000
molecule="O=C(Cc1ccc(Cl)c(Cl)c1)N1CCOC2CN(C3CCCC3)CC(N3CCCC3)C21 (racemic)" quantity=Ki unit_string=nM censoring_sign=> numeric_value=1000
molecule="O=C(Cc1ccc(Cl)c(Cl)c1)N1CCOC2CNCC(N3CCCC3)C21 (racemic)" quantity=Ki unit_string=nM censoring_sign== numeric_value=132
molecule="CCN1CC2OCCN(C(=O)Cc3ccc(Cl)c(Cl)c3)C2C(N2CCCC2)C1 (racemic)" quantity=Ki unit_string=nM censoring_sign== numeric_value=1300

----------
Each entry below carries its reported Ki.
- ASSAYED TARGET: Sigma non-opioid intracellular receptor 1 (Cavia porcellus, UniProt Q60492)
- Sequence (Q60492 whole entry): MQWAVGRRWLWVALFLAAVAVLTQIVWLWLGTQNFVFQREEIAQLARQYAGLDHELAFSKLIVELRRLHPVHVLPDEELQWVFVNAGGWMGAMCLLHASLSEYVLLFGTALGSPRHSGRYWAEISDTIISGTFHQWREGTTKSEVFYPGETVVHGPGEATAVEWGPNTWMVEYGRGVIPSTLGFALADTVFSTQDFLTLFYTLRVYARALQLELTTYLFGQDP
- PROTOCOL TEXT: Displacement of [3H]-(+)-Pentazocine from sigma1 receptor in guinea pig brain cortex membranes after 120 mins by scintillation counting analysis
QUANTITY: Ki (µM)

compound="O=C1COC2CN(C(=O)Cc3ccc(Cl)c(Cl)c3)CC(N3CCCC3)C2N1 (racemic)" unit_string=µM censoring_sign=> numeric_value=1
compound="CN1CC2OCCN(C(=O)Cc3ccc(Cl)c(Cl)c3)C2C(N2CCCC2)C1 (racemic)" unit_string=µM censoring_sign=> numeric_value=1
compound="CCCCN1CC2OCCN(C(=O)Cc3ccc(Cl)c(Cl)c3)C2C(N2CCCC2)C1 (racemic)" unit_string=µM censoring_sign== numeric_value=0.192
compound="O=C(Cc1ccc(Cl)c(Cl)c1)N1CCOC2CN(Cc3ccccc3)CC(N3CCCC3)C21 (racemic)" unit_string=µM censoring_sign== numeric_value=0.983
compound="O=C(Cc1ccc(Cl)c(Cl)c1)N1CCOC2CNCC(N3CCCC3)C21 (racemic)" unit_string=µM censoring_sign=> numeric_value=1
compound="O=C(Cc1ccc(Cl)c(Cl)c1)N1CCOC2CN(C3CCCC3)CC(N3CCCC3)C21 (racemic)" unit_string=µM censoring_sign== numeric_value=0.181
compound="CCN1CC2OCCN(C(=O)Cc3ccc(Cl)c(Cl)c3)C2C(N2CCCC2)C1 (racemic)" unit_string=µM censoring_sign== numeric_value=0.391
compound="O=C(Cc1ccc(Cl)c(Cl)c1)N1CCOC2CN(Cc3cccnc3)CC(N3CCCC3)C21 (racemic)" unit_string=µM censoring_sign== numeric_value=0.291
